Target: HIV-1 Env of isolate MGRM-AE-003 (HIV-1)
Experiment: cell-based or functional assay
quantity kind: IC50 (µg/mL), pseudovirus neutralization

binder: PGT-125 (antibody, V domains shown) VH: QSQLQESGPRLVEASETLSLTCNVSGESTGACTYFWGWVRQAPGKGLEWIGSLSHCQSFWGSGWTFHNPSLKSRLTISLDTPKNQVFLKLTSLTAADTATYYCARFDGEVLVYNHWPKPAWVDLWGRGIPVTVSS VL: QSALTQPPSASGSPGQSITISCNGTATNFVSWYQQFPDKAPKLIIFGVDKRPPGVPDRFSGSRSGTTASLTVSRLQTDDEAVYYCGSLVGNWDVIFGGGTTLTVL
quantity kind: IC50 (µg/mL), pseudovirus neutralization
result: 0.092 µg/mL

binder: PGT-126 (antibody, V domains shown) VH: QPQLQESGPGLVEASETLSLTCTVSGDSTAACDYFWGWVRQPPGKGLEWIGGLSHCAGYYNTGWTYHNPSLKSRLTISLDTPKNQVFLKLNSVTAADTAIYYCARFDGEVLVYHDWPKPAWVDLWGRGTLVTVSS VL: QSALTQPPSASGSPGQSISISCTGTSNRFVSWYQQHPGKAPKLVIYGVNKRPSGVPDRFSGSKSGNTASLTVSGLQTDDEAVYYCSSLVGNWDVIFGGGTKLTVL
quantity kind: IC50 (µg/mL), pseudovirus neutralization
result: > 50 µg/mL

binder: PGT-127 (antibody, V domains shown) VH: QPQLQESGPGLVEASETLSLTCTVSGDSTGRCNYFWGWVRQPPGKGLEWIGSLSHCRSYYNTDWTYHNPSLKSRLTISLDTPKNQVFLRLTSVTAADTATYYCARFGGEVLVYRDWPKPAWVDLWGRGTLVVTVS VL: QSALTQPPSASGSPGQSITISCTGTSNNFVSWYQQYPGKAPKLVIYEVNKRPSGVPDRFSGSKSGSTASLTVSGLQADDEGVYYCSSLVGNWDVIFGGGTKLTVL
quantity kind: IC50 (µg/mL), pseudovirus neutralization
result: > 50 µg/mL

Find the recorded IC50 (µg/mL), pseudovirus neutralization belonging to PGT-123 (antibody, V domains shown) VH: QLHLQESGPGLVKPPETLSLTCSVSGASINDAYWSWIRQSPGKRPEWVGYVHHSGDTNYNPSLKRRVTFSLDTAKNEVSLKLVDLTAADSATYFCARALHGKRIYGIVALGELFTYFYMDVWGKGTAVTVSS VL: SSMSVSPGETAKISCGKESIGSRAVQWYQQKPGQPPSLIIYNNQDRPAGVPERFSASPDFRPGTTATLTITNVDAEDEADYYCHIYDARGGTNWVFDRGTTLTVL and report it. > 50 µg/mL

Hey, just so you know, these numbers are from patent US20200024330A1.
